B1: Cytochrome c-551, P00099 (parent)
chain: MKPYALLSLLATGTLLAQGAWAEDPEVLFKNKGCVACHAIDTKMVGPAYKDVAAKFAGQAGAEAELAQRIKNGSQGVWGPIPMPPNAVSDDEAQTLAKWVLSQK

Variants of: B1
test conditions: Pseudomonas aeruginosa (strain ATCC 15692 / DSM 22644 / CIP 104116 / JCM 14847 / LMG 12228 / 1C / PRS 101 / PAO1); pH 7; 10 °C; Urea; Fluorescence; sodium phosphate 50 mM; reversible: yes; structure 451C; whole UniProt chain shown
Assign denaturant midpoint (higher = more stable) to each entry below.
Numbers only, in M.

Worked set:
>  <residue change>
E92Q

>  <quantitative result>
5.7

$$$$
>  <residue change>
W78F

>  <quantitative result>
4.6

$$$$

Would you be so kind as to report denaturant midpoint (higher = more stable) for each listed record?
1. E92V
2. W99F

[4.3, 5.6]
